measuredOn: COX-2 (Macaca mulatta)
Sequence (F7BWZ9 18-604): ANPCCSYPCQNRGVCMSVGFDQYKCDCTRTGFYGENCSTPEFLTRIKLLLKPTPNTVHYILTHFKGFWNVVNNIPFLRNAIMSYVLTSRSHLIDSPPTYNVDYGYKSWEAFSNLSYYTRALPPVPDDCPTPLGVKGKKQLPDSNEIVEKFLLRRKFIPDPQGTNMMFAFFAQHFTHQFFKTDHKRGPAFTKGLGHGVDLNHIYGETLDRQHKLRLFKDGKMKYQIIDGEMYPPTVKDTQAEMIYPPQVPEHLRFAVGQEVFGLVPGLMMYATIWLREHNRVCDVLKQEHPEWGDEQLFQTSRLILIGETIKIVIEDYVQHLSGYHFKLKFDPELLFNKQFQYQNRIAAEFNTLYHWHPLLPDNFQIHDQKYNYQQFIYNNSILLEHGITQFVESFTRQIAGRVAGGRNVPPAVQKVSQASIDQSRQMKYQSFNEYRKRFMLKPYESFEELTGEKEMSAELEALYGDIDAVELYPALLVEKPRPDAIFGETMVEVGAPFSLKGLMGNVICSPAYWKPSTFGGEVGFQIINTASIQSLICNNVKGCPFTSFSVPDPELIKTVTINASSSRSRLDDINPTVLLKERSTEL
assayOverview: COX-2 inhibition, monkey whole blood (Prostaglandin E2 EIA)
measurementLabel: IC50 (nM)

Below: 3 molecules and their reported IC50.
QUERY: Item under review: CCSc1cc(NCc2cccs2)nc(-c2ccc(S(C)(=O)=O)cc2)n1 [Compound 19] . Reported IC50?
RESULT: 52.3

QUERY: Item under review: COc1cc(NCc2cccs2)nc(-c2ccc(S(C)(=O)=O)cc2)n1 [Compound 17] . Reported IC50?
RESULT: 2.58

QUERY: Item under review: CS(=O)(=O)c1ccc(-c2nc(NCc3cccs3)cc(OCF)n2)cc1 [Compound 27] . Reported IC50?
RESULT: 2.26

1: CSc1cc(NCc2cccs2)nc(-c2ccc(S(C)(=O)=O)cc2)n1 [Compound 21]
2: COc1cc(NCc2ccccc2)nc(-c2ccc(S(C)(=O)=O)cc2)n1 [Compound 22]
QUERY: I would appreciate it if you could say which entry, 1 or 2 , has the lower IC50 value. Answer = label.
RESULT: 1
(1: 4.83 nM, 2: 14.6 nM)

----------
measuredOn: COX-1 (Homo sapiens)
Sequence (P23219 24-599): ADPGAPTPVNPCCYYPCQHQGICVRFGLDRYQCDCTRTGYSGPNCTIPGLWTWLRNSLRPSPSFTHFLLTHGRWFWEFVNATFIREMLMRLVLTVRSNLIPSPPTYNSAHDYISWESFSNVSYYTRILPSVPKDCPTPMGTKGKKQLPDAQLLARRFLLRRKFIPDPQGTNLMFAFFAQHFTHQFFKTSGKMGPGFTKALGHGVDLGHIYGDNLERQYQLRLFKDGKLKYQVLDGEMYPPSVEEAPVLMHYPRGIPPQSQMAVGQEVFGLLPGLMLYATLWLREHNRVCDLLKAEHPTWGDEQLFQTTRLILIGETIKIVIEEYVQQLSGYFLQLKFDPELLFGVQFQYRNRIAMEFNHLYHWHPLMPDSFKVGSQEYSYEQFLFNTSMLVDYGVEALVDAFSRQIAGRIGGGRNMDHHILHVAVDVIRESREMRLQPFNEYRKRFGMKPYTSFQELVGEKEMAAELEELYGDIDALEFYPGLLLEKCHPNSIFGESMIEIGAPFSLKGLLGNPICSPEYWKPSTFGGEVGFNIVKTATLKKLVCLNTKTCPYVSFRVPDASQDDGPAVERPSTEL
assayOverview: COX-1 inhibition, human whole blood (Thromboxane B2 EIA)
pIC50: −log10 of the molar value.
As shown below, each of these compounds has a reported pIC50 value.

Below: 5 compounds and their reported pIC50.
QUERY: Item under review: CS(=O)(=O)c1ccc(-c2nc(Cl)cc(NCc3cccs3)n2)cc1 . Reported pIC50?
RESULT: < 5.00

QUERY: Item under review: CCSc1cc(NCc2cccs2)nc(-c2ccc(S(C)(=O)=O)cc2)n1 . Reported pIC50?
RESULT: < 6.00

QUERY: Item under review: COc1cc(NCc2ccccc2)nc(-c2ccc(S(C)(=O)=O)cc2)n1 . Reported pIC50?
RESULT: < 6.00

QUERY: Item under review: CCOc1cc(NCc2cccs2)nc(-c2ccc(S(C)(=O)=O)cc2)n1 . Reported pIC50?
RESULT: < 5.00

QUERY: Item under review: COc1cc(NCc2cccs2)nc(-c2ccc(S(C)(=O)=O)cc2)n1 . Reported pIC50?
RESULT: < 6.00

Further cases:
QUERY: Item under review: CSc1cc(NCc2cccs2)nc(-c2ccc(S(C)(=O)=O)cc2)n1 . Reported pIC50?
RESULT: < 6.00

QUERY: Item under review: CS(=O)(=O)c1ccc(-c2nc(NCc3cccs3)cc(OCF)n2)cc1 . Reported pIC50?
RESULT: < 6.00

QUERY: Item under review: CS(=O)(=O)c1ccc(-c2nc(O)cc(NCc3ccccc3)n2)cc1 . Reported pIC50?
RESULT: < 6.00
